Entry source: PubChem BioAssay AID2462

molecules and their reported caspase activation
- run.description: caspase 3/7 activation in MEF A1-2A-BIM cells, primary screen, A1 inhibitor project, cell-based, luminescence, HTS (AID 2462)
- condition.notes: Caspase-Glo 3/7 luminescence, 3 h, hits give high values, percent of clofoctol response, vehicle zero, concentration not given here
The campaign covered roughly 330,000 compounds. About 220 (0.067%) were called active. The sample as a whole holds a higher share of actives than the screen did.
measure.name: caspase activation (%)

INSERT INTO results (molecule, measure_name, unit_string, result) VALUES
  ('CCOC(=O)c1c(C)n(C)c2ccc(OC)c(NS(=O)(=O)CC)c12', 'caspase activation', '%', -0.135),
  ('COc1cccc(NC(=O)CN(C)C(C)C(=O)Nc2ccc(C#N)cc2)c1 (stereo not given)', 'caspase activation', '%', 0.554),
  ('C/C(=C/C(=O)N1CCN(C)CC1)C(=O)O', 'caspase activation', '%', 0.653),
  ('CSc1ccc(/C=C2\NC(=O)NC2=O)cc1', 'caspase activation', '%', -0.861),
  ('Cn1c(CCCOc2ccc(Cl)cc2Cl)n[nH]c1=S', 'caspase activation', '%', -0.629),
  ('CCOC(=O)C(NC(=O)CC(C)C)(Nc1sc2c(c1C(N)=O)CCCC2)C(F)(F)F (stereo not given)', 'caspase activation', '%', 0.722),
  ('N#CCOc1ccc(C2=NO[C@@H]3[C@@H]4C[C@@H]([C@H]5C(=O)N(c6ccc7c(c6)OCO7)C(=O)[C@@H]45)[C@H]23)cc1', 'caspase activation', '%', 0.442),
  ('CCOCCn1[nH]c2ccccc2c1=O', 'caspase activation', '%', -0.169),
  ('COc1cc(/C=C/C(=O)OCC(=O)c2ccccc2)cc(OC)c1OC', 'caspase activation', '%', 0.0945),
  ('CC(C)C[C@H](NC(=O)N1CC(=O)Nc2ccccc21)C(=O)N[C@H](Cc1ccccc1)C(=O)O', 'caspase activation', '%', 0.252);
